- Test target: EGFR-L858R/T790M (Homo sapiens (Human), UniProt P00533, L858R/T790M)
- Sequence (P00533 25-1210 T790M/L858R): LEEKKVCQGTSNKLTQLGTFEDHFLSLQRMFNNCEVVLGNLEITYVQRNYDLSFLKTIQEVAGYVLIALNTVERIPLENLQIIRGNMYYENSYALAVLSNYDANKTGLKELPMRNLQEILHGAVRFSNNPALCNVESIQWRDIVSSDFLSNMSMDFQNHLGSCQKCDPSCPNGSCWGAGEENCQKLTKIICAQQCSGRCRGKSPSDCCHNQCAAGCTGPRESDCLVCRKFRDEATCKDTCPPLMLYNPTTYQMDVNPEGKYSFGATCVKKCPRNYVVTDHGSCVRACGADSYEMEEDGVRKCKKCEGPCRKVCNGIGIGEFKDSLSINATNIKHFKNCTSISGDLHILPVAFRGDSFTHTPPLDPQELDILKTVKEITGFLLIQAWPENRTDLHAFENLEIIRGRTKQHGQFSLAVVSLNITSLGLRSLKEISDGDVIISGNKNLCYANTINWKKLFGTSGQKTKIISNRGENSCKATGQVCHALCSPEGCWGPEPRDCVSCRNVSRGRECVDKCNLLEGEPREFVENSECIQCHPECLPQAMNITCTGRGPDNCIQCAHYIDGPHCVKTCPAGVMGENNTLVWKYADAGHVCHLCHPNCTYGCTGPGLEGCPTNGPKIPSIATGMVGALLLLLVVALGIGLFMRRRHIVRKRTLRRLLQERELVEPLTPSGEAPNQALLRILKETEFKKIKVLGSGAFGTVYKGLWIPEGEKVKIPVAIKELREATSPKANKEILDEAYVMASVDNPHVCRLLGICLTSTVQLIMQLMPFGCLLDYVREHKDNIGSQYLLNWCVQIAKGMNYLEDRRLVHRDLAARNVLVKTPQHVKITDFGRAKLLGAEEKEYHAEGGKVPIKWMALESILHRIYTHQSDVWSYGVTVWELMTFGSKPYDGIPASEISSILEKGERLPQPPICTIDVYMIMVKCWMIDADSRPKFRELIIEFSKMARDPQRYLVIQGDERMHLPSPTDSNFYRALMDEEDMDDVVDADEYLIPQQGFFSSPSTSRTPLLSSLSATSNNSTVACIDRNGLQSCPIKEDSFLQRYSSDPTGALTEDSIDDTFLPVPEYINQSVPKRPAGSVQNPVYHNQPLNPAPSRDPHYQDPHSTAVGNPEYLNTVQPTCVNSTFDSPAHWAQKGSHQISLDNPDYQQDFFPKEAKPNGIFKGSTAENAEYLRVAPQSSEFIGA
- Experiment summary: In vitro EGFR kinase activity assay (Z'-Lyte);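 also: Cell-free kinase reaction with peptide substrate and ATP, 1.5 h at room temperature, development cleaving unphosphorylated peptide, 10-point dilution 0.051–1000 nM, phosphopeptide as 100% phosphorylation control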
- Format: biochemical
- Test parameters: read-out: Inhibitory activity on EGFR kinase (IC50, nM) T790M/L858R
Assay readout: IC50 (nM)

| Compound structure string | Test target | Units symbol | IC50 |
| --- | --- | --- | --- |
| COc1ccc(Nc2ncc3ncc(=O)n(-c4ccc(NC(=O)/C=C/CN(C)C)cc4)c3n2)cc1 | EGFR-L858R/T790M (Homo sapiens (Human), UniProt P00533, L858R/T790M) | nM | 39.1 |
| C=CC(=O)Nc1ccc(-n2c(=O)cnc3cnc(Nc4ccc(N5CCN(C)CC5)cc4)nc32)cc1 | EGFR-L858R/T790M (Homo sapiens (Human), UniProt P00533, L858R/T790M) | nM | 738 |

1. C=CC(=O)Nc1ccc(-n2c(=O)cnc3cnc(Nc4ccc(OC)cc4)nc32)cc1
2. C=CC(=O)Nc1cccc(Nc2ncc3ncc(=O)n(-c4ccc(OC)cc4)c3n2)c1
3. C=CC(=O)Nc1cccc(-n2c(=O)cnc3cnc(Nc4ccc(Cl)cc4)nc32)c1
4. C=CC(=O)Nc1cccc(-n2c(=O)cnc3cnc(Nc4ccc(N5CCCC5)cc4)nc32)c1
Exercise: Please list the entries, largest IC50 first. Answer format: list of labels, ordered as asked.
Solution: 2, 1, 3, 4
(2: 1200 nM, 1: 606 nM, 3: 70.3 nM, 4: 5.33 nM)
